# test summary: Determination of half life in PBS: cleavage of promoieties from capped model peptides
# Type: physicochemical
# reported conditions: PBS, 37° C., 1 mg/mL, RP-HPLC; read-out: t 1/2 (h), cleavage of promoiety linked to N terminus of model peptide X-[…] (converted)
Numbered stars: 1 amine (or outer) side, 2 acyl side, 3 side chain; on linkers, the order of the positions; unused ones are H or OH. Square brackets hold non-standard residues; d marks the D form. Peptide text beside a SMILES is read from it. * marks the point of attachment. 2(aminomethyl)benzoyl = O=C(c1ccccc1CN[*:1])[*:2]; X6 = CCCCCCCCCC(=O)NCCCNC(=O)c1ccc(C(=O)*)c(CN)c1; X2 = O=C([C@@H]1Cc2ccccc2N1[*:1])[*:2]; Tiq1c(1S) = O=C(O)[C@H]1NCCc2ccccc21; Tic = O=C(O)[C@@H]1Cc2ccccc2CN1; dTic = O=C(O)[C@H]1Cc2ccccc2CN1; Decanoyl = CCCCCCCCCC(=O)*
value kind: log10(half-life at 1 mg/mL) (log10 of the value in h)
// do not treat as linear: log10 of half-life at 1 mg/mL, unit h

Consider the worked cases shown below.
CCCCCCCCCC(=O)NCCCC[C@@H](N)C(=O)N1Cc2ccccc2C[C@@H]1C(=O)NCC(=O)N[C@H](C(=O)N[C@H](C(=O)N[C@@H](CCC(=O)O)C(=O)N[C@@H](CCC(N)=O)C(=O)N[C@@H](C)C(=O)N[C@@H](C)C(=O)N[C@@H](Cc1ccc(O)cc1)C(=O)O)C(C)C)[C@@H](C)CC [NH2-dK(C10)-dTic] (H-[dK](Decanoyl)[dTic]GIVEQAAY-OH; C-terminus assumed) = 1.70
CCCCCCCCCC(=O)NCCCNC(=O)c1ccc(C(=O)NCC(=O)N[C@H](C(=O)N[C@H](C(=O)N[C@@H](CCC(=O)O)C(=O)N[C@@H](CCC(N)=O)C(=O)N[C@@H](C)C(=O)N[C@@H](C)C(=O)N[C@@H](Cc2ccc(O)cc2)C(=O)O)C(C)C)[C@@H](C)CC)c(CN)c1 (X6-GIVEQAAY-OH) = 2.26
CC[C@H](C)[C@H](NC(=O)CNC(=O)c1ccccc1CN)C(=O)N[C@H](C(=O)N[C@@H](CCC(=O)O)C(=O)N[C@@H](CCC(N)=O)C(=O)N[C@@H](C)C(=O)N[C@@H](C)C(=O)N[C@@H](Cc1ccc(O)cc1)C(=O)O)C(C)C ({2(aminomethyl)benzoyl}-GIVEQAAY-OH; C-terminus assumed) = 3.01
CC[C@H](C)[C@H](NC(=O)CNC(=O)[C@@H]1Cc2ccccc2N1C(=O)[C@@H](N)C(C)C)C(=O)N[C@H](C(=O)N[C@@H](CCC(=O)O)C(=O)N[C@@H](CCC(N)=O)C(=O)N[C@@H](C)C(=O)N[C@@H](C)C(=O)N[C@@H](Cc1ccc(O)cc1)C(=O)O)C(C)C [NH2-Val-Indo2CA] (H-V[X2]GIVEQAAY-OH; C-terminus assumed) = 1.11
N[C@@H](CCCCNC(=O)OCC1c2ccccc2-c2ccccc21)c1nncn1[C@@H](CO)C(=O)O = 1.90

// returns reported log10(half-life at 1 mg/mL) for input CC[C@H](C)[C@H](NC(=O)CNC(=O)[C@@H]1Cc2ccccc2CN1C(=O)[C@H](C)N)C(=O)N[C@H](C(=O)N[C@@H](CCC(=O)O)C(=O)N[C@@H](CCC(N)=O)C(=O)N[C@@H](C)C(=O)N[C@@H](C)C(=O)N[C@@H](Cc1ccc(O)cc1)C(=O)O)C(C)C [NH2-Ala-Tic] (H-A[Tic]GIVEQAAY-OH; C-terminus assumed)
1.77

// returns reported log10(half-life at 1 mg/mL) for input CCCCCCCCCC(=O)NCCCC[C@H](N)C(=O)N1CCc2ccccc2[C@H]1C(=O)NCC(=O)N[C@H](C(=O)N[C@H](C(=O)N[C@@H](CCC(=O)O)C(=O)N[C@@H](CCC(N)=O)C(=O)N[C@@H](C)C(=O)N[C@@H](C)C(=O)N[C@@H](Cc1ccc(O)cc1)C(=O)O)C(C)C)[C@@H](C)CC (H-K(Decanoyl)[Tiq1c(1S)]GIVEQAAY-OH)
2.42
